Measured GI50 of individual entries
# Tested on: SNB-75
# experimentDescription: NCI tumour cell line growth inhibition, 48 h
Calls of active or inactive are those of the source. Cut-off read from the data, not from the text of the source: active = GI50 up to about 1.1 µM and inactive = higher.

Oc1ccc(NCc2cc(O)ccc2O)cc1 | 17.2 µM (inactive)

// sample C=C(C(=O)OC)c1cc2ccccc2n1S(=O)(=O)c1ccccc1 , its GI50 was 3.3 µM (inactive)

// sample c1ccc(-c2cc(-c3cc(-c4ccccc4)[nH]n3)[nH]n2)cc1 , its GI50 was > 100 µM (inactive)

====

# System: NCI-H460
# experimentDescription: NCI tumour cell line growth inhibition, 48 h
The source made the active and inactive calls. Cut-off read from the data, not from the text of the source: active = GI50 up to about 1.1 µM and inactive = higher.
Please answer using one outcome listed in active, inactive

O=C1/C(=C\c2ccc([N+](=O)[O-])cc2)CS(=O)(=O)C/C1=C/c1ccc([N+](=O)[O-])cc1 | active
O=c1[nH][nH]c(=O)n1Cc1cccc(Cn2c(=O)[nH][nH]c2=O)c1 | inactive
O=C(CCc1ccc(O)c(O)c1)NCCc1cc(O)c(O)c(O)c1 | inactive

-- ask Write down the call the test reported for this molecule. Item: CCCCc1c2c(nc3c1CCc1cc4cc5c(nc4nc1-3)-c1nc3c(c(CCCC)c1CC5)CCCC3)CCCC2
-- reply inactive

-- ask Write down the call the test reported for this molecule. Item: O=c1[nH]c(=O)n(COCc2ccccc2)c2ccc(Br)cc12
-- reply inactive

====

Measured GI50 of individual entries
# Tested on: EKVX
# experimentDescription: NCI tumour cell line growth inhibition, 48 h
Activity calls are given as the source filed them. Rule as the data show it: active = GI50 up to about 1.1 µM and inactive = higher.

These solved cases illustrate the format of a correct answer.
COc1cc(/C=C/C2=C(C#N)C(=O)OC2(C)C)ccc1O | > 100 µM (inactive)
Nc1nc(NCC2(CO)CC2)cc(=O)[nH]1 | > 100 µM (inactive)
Cc1cc2nc3c(C#N)c(-c4ccccc4)cc(Nc4ccc(F)cc4)n3c2cc1C | 14.6 µM (inactive)

// sample O=C(O)C1=C(C(=O)O)N(c2ccncc2)C(c2ccco2)=CC1c1ccccc1[N+](=O)[O-] (centres undefined) , its GI50 was 11.2 µM (inactive)

// sample O=C(Nc1ccccc1C(=O)NC(=O)c1ccccc1NC(=O)c1ccccc1)c1ccccc1 , its GI50 was 8.71 µM (inactive)

// sample COC(=O)C12Oc3ccc(-c4ccc5c(c4O)C(=O)C4=CCC(C)C(O)C4(C(=O)OC)O5)c(O)c3C(=O)C1=CCC(C)C2O (centres undefined) , its GI50 was 1.88 µM (inactive)

// sample CSc1nc2ccccc2c(=O)n1/N=C1\C(=O)N(CN2CCOCC2)c2ccc(Cl)cc21 , its GI50 was 2.6 µM (inactive)

// sample COc1ccc(C(c2ccc3c(c2)OCO3)N2C(=O)CCC2C(=O)O)cc1 (centres undefined) , its GI50 was > 100 µM (inactive)

// sample CCCCOC(=O)NC(=O)c1cn(CCCOC(=O)CCCCCCCCC(=O)OCCCn2cc(C(=O)NC(=O)OCCCC)c(=O)[nH]c2=O)c(=O)[nH]c1=O , its GI50 was > 100 µM (inactive)

====

# Tested on: IGROV-1
# experimentDescription: NCI tumour cell line growth inhibition, 48 h
Active and inactive are the calls of the source. Rule as the data show it: active = GI50 up to about 1.1 µM and inactive = higher.
Measured GI50 of individual entries

COC(=O)c1ccc(NC(=O)O/N=C(\Cl)C(C)C)cc1 | 13.9 µM (inactive)
O=[N+]([O-])c1ccc(N=P(c2ccccc2)(c2ccccc2)c2ccccc2)n2nnnc12 | > 100 µM (inactive)

Query CC(C)(C)C(=O)CC(=O)C(C)(C)C.CC(C)(C)C(=O)CC(=O)C(C)(C)C.[SiH4] on IGROV-1; GI50 returned: 1.47 µM (inactive)

Query Cc1ccccc1NC(=O)O/N=C(\Cl)C(C)C on IGROV-1; GI50 returned: 9.42 µM (inactive)

Query N#C/C(=C\c1cccc(O)c1O)C(N)=O on IGROV-1; GI50 returned: 93.1 µM (inactive)

Query CC12CC3c4ccccc4CN1C3(c1ccccc1)OC2=O (stereo unspecified) on IGROV-1; GI50 returned: > 100 µM (inactive)

Every entry's value here was drawn from ChEMBL document CHEMBL1201862.
